The measurements presented in this section are drawn from patent US20240150465A1.

# studyTarget: T1, del0
# T1 construct: also called human DLL3 ECD with Flag-tag on C-terminus
# T1 chain: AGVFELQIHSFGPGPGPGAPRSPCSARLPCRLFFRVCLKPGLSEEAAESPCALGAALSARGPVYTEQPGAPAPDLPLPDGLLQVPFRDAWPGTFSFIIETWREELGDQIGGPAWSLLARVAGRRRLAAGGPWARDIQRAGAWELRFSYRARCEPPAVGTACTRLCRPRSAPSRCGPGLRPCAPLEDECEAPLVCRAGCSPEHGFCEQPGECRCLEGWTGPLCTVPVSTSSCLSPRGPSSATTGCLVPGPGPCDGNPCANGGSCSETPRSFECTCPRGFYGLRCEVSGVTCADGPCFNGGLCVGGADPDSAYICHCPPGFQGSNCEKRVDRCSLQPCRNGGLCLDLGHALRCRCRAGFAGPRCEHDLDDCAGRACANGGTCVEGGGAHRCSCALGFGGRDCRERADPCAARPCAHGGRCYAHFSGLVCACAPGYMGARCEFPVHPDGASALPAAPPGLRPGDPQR
# assayDetails: ELISA with the human DLL3 ECD fragment proteins del0 to del6, OD405
recordedEndpoint: binding result

binding result reading for DLA0769 (antibody, human IgG1, V domains shown, Rabbit B-cell clone, screened as B-cell culture supernatant) VH: QEQLVESGGGLVQPEGSLTLTCTASGFSFSSSGYMCWVRQAPGKGLEWIACISGGSSGDTDYANWAKGRFSISKTSSTTVTLQMTSLTVADTATYFCARDVYIDSTIFNFNLWGPGTLVTVSS VL: QVLTQTPSPVSAAVGGTVTISCQASQSVYNNNNLAWYQQKPGQPPKLLIYAASSLASGVPSRFKGSGAGTQFTLTISDLECDDAATYYCQGTYYSSGWYSTFGGGTEVVVK : binds

binding result reading for DLA0841 (antibody, human IgG1, V domains shown, Rabbit B-cell clone, screened as B-cell culture supernatant) VH: QEQLVESGGGLVQPEGSLTLTCTASGFSFSSSYDMCWVRQAPGKGPEWIACIYTGDGSTDYASWAKGRFTVSKASSTTVTLQMTSLAVADTATYFCARNSGYGYFGLWGPGTLVTVSS VL: QVLTQTPSPVSAAVGGTVTISCQSTESVYGSDWLSWYQQKPGQPPKVLIYQASNLEIGVPSRFKGSGSGTQFTLTISGAQCDDAATYYCQGYYSGYIYAFGGGTEVVVK : binds

binding result reading for DLA0106 (antibody, human IgG1, V domains shown, Rabbit B-cell clone, screened as B-cell culture supernatant) VH: QSVEESGGRLVTPGTPLTLTCTVSGIDLSSYAMSWVRQAPGKGLEWIGIISNSGSGFYANWAKGRFTISKTSSTTVDVKISSPTTEDTATYFCARVFDADSSGYYYYGMDPWGPGTLVTVSS VL: DVVMTQTPSSVSEPVGGTVTIKCQASEDIESYLAWYQQKPGQPPKLLIYAASTLASGVSSRFRGSGSGTEYTLTISDLECADAATYYCQSTYYDSSGVDWAFGGGTEVVVK : binds
